Values compiled from patent US9957289B2.

# Target entity: FimH (Escherichia coli)
# Construct: endogenous in cells; host or cells: type 1 piliated uropathogenic E. coli (UPEC)
# Sequence (P08191 22-300): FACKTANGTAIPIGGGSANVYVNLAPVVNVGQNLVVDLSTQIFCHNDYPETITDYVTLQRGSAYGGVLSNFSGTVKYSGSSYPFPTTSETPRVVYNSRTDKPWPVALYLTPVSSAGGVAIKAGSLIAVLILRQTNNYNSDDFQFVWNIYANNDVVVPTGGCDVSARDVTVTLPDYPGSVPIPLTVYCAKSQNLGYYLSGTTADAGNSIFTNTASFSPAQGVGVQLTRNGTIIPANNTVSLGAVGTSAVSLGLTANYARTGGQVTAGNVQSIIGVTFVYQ
# Experimental protocol: Hemagglutination inhibition (HAI) assay, guinea pig red blood cells
# Assay type: cell-based, E. coli
# Measurement parameters: concentration inhibiting >90% hemagglutination of guinea pig red blood cells
Property: HAI Titer EC>90 (µM)
Answer with a number only, understood to be in µM.

Would you mind telling me what HAI Titer EC>90 value was observed for Cc1cc(-c2cccc(C(=O)Nc3ccncc3)c2)ccc1O[C@H]1O[C@@H](CO)[C@@H](O)[C@H](O)[C@H]1O ?
0.064

Try the compound Cc1nnc(-c2cccc(-c3ccc(O[C@H]4O[C@@H](CO)[C@@H](O)[C@H](O)[C@H]4O)c(C)c3)c2)o1
0.062

Try the compound CNC(=O)c1cccc(-c2ccc(C[C@H]3O[C@@H](CO)[C@@H](O)[C@H](O)[C@H]3O)c(C)c2)c1
2.000

Try the compound COC(=O)c1cccc(-c2ccc(O[C@H]3O[C@@H](CO)[C@@H](O)[C@H](O)[C@H]3O)c(C)c2)c1
0.12

Try the compound Cc1cc(-c2ccc3ccn(Cc4cccnc4)c(=O)c3c2)ccc1O[C@H]1O[C@@H](CO)[C@@H](O)[C@H](O)[C@H]1O
0.008

Try the compound Cc1cc(-c2ccc3ccn(Cc4ccncc4)c(=O)c3c2)ccc1O[C@H]1O[C@@H](CO)[C@@H](O)[C@H](O)[C@H]1O
0.004
